From: ChEMBL document CHEMBL1275555

Test system: Streptococcus sp. 'group B'
method: Antimicrobial activity against Group B streptococcus serotype VI N4 harboring E63K mutation in PBP 2A and L41S mutation in PBP 1B by broth microdilution method
Format: functional

[
  {
    "compound": "CN(C)[C@@H]1C(O)=C(C(N)=O)C(=O)[C@@]2(O)C(O)=C3C(=O)c4c(O)cccc4[C@@](C)(O)[C@H]3C[C@@H]12 [TETRACYCLINE]",
    "tested system": "Streptococcus sp. 'group B'",
    "readout qualifier": ">",
    "MIC (µg/mL)": 4
  },
  {
    "compound": "CN(C)CCn1nnnc1SCC1=C(C(=O)O)N2C(=O)[C@@H](NC(=O)Cc3csc(N)n3)[C@H]2SC1 [CEFOTIAM]",
    "tested system": "Streptococcus sp. 'group B'",
    "readout qualifier": "≤",
    "MIC (µg/mL)": 0.5
  },
  {
    "compound": "CO/N=C(\\C(=O)N[C@@H]1C(=O)N2C(C(=O)O)=C(COC(C)=O)CS[C@H]12)c1csc(N)n1 [CEFOTAXIME]",
    "tested system": "Streptococcus sp. 'group B'",
    "readout qualifier": "≤",
    "MIC (µg/mL)": 0.06
  },
  {
    "compound": "C=CC1=C(C(=O)O)N2C(=O)[C@@H](NC(=O)/C(=N\\OCC(=O)O)c3csc(N)n3)[C@H]2SC1 [CEFIXIME]",
    "tested system": "Streptococcus sp. 'group B'",
    "readout qualifier": "=",
    "MIC (µg/mL)": 0.5
  },
  {
    "compound": "CO/N=C(\\C(=O)N[C@@H]1C(=O)N2C(C(=O)[O-])=C(C[N+]3(C)CCCC3)CS[C@H]12)c1csc(N)n1 [CEFEPIME]",
    "tested system": "Streptococcus sp. 'group B'",
    "readout qualifier": "≤",
    "MIC (µg/mL)": 0.5
  },
  {
    "compound": "CC1(C)S[C@@H]2[C@H](NC(=O)[C@H](N)c3ccccc3)C(=O)N2[C@H]1C(=O)O [AMPICILLIN]",
    "tested system": "Streptococcus sp. 'group B'",
    "readout qualifier": "=",
    "MIC (µg/mL)": 0.12
  },
  {
    "compound": "C[C@H]1COc2c(N3CCN(C)CC3)c(F)cc3c(=O)c(C(=O)O)cn1c23.C[C@H]1COc2c(N3CCN(C)CC3)c(F)cc3c(=O)c(C(=O)O)cn1c23.O [LEVOFLOXACIN]",
    "tested system": "Streptococcus sp. 'group B'",
    "readout qualifier": "=",
    "MIC (µg/mL)": 0.5
  }
]

###

Here the recorded MIC is given for each entry.
Test system: Streptococcus sp. 'group B'
method: Antimicrobial activity against Group B streptococcus serotype VI N4 harboring E63K mutation in PBP 2A and L41S mutation in PBP 1B by broth microdilution method
Assay type: functional

[
  {
    "molecule smiles": "CC[C@H]1OC(=O)[C@H](C)[C@@H](O[C@H]2C[C@@](C)(OC)[C@@H](O)[C@H](C)O2)[C@H](C)[C@@H](O[C@@H]2O[C@H](C)C[C@H](N(C)C)[C@H]2O)[C@](C)(OC)C[C@@H](C)C(=O)[C@H](C)[C@@H](O)[C@]1(C)O",
    "MIC": "≤ 0.12 µg/mL"
  },
  {
    "molecule smiles": "CCC[C@@H]1C[C@@H](C(=O)N[C@@H]([C@H]2O[C@H](SC)[C@H](O)[C@@H](O)[C@H]2O)[C@H](C)Cl)N(C)C1",
    "MIC": "≤ 0.12 µg/mL"
  },
  {
    "molecule smiles": "CC1(C)S[C@@H]2[C@H](NC(=O)Cc3ccccc3)C(=O)N2[C@H]1C(=O)O",
    "MIC": "0.06 µg/mL"
  },
  {
    "molecule smiles": "CO/N=C(\\C(=O)N[C@@H]1C(=O)N2C(C(=O)[O-])=C(C[n+]3ccn4ncccc43)CS[C@H]12)c1nsc(N)n1",
    "MIC": "0.12 µg/mL"
  },
  {
    "molecule smiles": "CO/N=C(\\C(=O)N[C@@H]1C(=O)N2C(C(=O)OCOC(=O)C(C)(C)C)=C(/C=C\\c3scnc3C)CS[C@H]12)c1csc(N)n1",
    "MIC": "≤ 0.06 µg/mL"
  },
  {
    "molecule smiles": "CC[C@H]1OC(=O)[C@H](C)[C@@H](O[C@H]2C[C@@](C)(OC)[C@@H](O)[C@H](C)O2)[C@H](C)[C@@H](O[C@@H]2O[C@H](C)C[C@H](N(C)C)[C@H]2O)[C@](C)(O)C[C@@H](C)C(=O)[C@H](C)[C@@H](O)[C@]1(C)O",
    "MIC": "≤ 0.12 µg/mL"
  },
  {
    "molecule smiles": "C[C@@H](O)[C@H]1C(=O)N2C(C(=O)O)=C(S[C@@H]3CN[C@H](C(=O)N(C)C)C3)[C@H](C)[C@H]12",
    "MIC": "≤ 0.12 µg/mL"
  }
]
